Where do these numbers come from? They come from ChEMBL document CHEMBL1127582.

pKi: −log10 of the molar value.
pKi values recorded for UniProt:P23977
Sequence (P23977 whole entry): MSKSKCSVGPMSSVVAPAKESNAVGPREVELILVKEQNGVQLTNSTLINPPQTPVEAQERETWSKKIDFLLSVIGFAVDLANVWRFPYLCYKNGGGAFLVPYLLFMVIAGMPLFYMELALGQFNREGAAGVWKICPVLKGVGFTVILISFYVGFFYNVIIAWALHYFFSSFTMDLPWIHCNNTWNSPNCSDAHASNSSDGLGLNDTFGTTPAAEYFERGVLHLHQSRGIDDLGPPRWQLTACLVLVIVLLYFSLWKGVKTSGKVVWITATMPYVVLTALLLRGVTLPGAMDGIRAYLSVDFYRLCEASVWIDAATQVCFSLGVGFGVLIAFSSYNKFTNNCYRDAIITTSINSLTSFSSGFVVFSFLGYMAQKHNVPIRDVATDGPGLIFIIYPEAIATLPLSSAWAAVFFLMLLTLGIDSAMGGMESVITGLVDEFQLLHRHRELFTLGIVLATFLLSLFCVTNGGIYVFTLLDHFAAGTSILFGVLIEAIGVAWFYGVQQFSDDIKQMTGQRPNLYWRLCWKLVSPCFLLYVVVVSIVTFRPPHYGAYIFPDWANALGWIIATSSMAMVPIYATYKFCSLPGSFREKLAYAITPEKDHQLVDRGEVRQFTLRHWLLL
ENDPOINT_NAME: pKi

{"MOLECULE": "CN1[C@@H]2CC[C@H]1C[C@@H](OC(c1ccccc1)c1ccc(Cl)cc1)C2 (some centres undefined)", "ENDPOINT_NAME": "pKi", "READOUT_VALUE": 7.52}
{"MOLECULE": "COc1ccc(C(OC2CC3CCC(C2)N3C)c2ccccc2)cc1 (centres undefined)", "ENDPOINT_NAME": "pKi", "READOUT_VALUE": 7.11}
{"MOLECULE": "COc1ccc(C(OC2CC3CCC(C2)N3C)c2ccc(OC)cc2)cc1 (centres undefined)", "ENDPOINT_NAME": "pKi", "READOUT_VALUE": 5.70}
{"MOLECULE": "CN1C2CCC1CC(OC(c1ccccc1)c1ccc(Cl)cc1)C2 (centres undefined)", "ENDPOINT_NAME": "pKi", "READOUT_VALUE": 6.07}
